Data provenance: paper PMC8900816

- study_system: MsCI4 (Magnetospirillum gryphiswaldense)
- Construct: gene MGR_0879; wild-type single-domain bacterial cereblon homologue; pETHis1a, E. coli C41(DE3); His tag removed with TEV; three monomers per asymmetric unit; structural zinc; RED-NHS amine-labelled for MST
- Sequence (A4TVL0 1-124): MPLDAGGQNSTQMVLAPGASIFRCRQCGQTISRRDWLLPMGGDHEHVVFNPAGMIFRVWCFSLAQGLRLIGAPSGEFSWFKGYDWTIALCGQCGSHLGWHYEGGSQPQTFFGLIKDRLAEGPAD
- test_name: labelled microscale thermophoresis
- Assay type: binding
- test_parameters: read-out: MsCI4 (K d, μM) / Labelled MST
Assign Kd to each entry below.
Please give a number only; it is taken to be in µM.

stdin: Look up Kd with MsCI4 (Magnetospirillum gryphiswaldense) for this molecule: O=C1CC[C@H](N2Cc3c(OCc4ccc(CN5CCOCC5)cc4)cccc3C2=O)C(=O)N1 [Iberdomide]
stdout: 0.409

stdin: Query the reported Kd for MsCI4 (Magnetospirillum gryphiswaldense); item: Cc1nc2cccc(N)c2c(=O)n1[C@H]1CCC(=O)NC1=O [Avadomide]
stdout: 4.84
